Origin of measurements: ChEMBL document CHEMBL1141286

Catalogue of TGI values
test system: MCF7; assay: Growth inhibition of human MCF7 cells; type: functional; details: read-out: Log TGI (converted)
Numbers only; they are read as µM.

Q: Report TGI for CCCc1cc(=O)c2c(OC)c3c(OC)cc(O)c(Oc4c(O)cc(OC)c5c(OC)c6c(=O)cc(CCC)oc6cc45)c3cc2o1 tested on MCF7.
Result: 10

Q: Report TGI for CCCc1cc(=O)c2c(O)c3c(OC)cc(O)cc3cc2o1 tested on MCF7.
Result: 60.3

----------
test system: SK-MEL-5; assay: Growth inhibition of human SK-MEL5 cells; assay type: functional
Catalogue of LC50 values
Numbers only; they are read as µM.

Examples from the recorded data:
[[record]]
smilesrecord = "CCCc1cc(=O)c2c(O)c3c(OC)cc(O)cc3cc2o1"
quantitativereadout = 52.5

[[record]]
smilesrecord = "CCCc1cc(=O)c2c(OC)c3c(OC)cc(O)c(Oc4c(O)cc(OC)c5c(OC)c6c(=O)cc(CCC)oc6cc45)c3cc2o1"
quantitativereadout = 7.08


Continue with the compound presented below.
Q: Name the reported LC50 value associated with the compound COc1cc(O)cc2cc3oc(C)cc(=O)c3c(O)c12
Result: 34.7
